experiment: Tmax in Wistar rat plasma at 1 mg/kg, iv; format: ADME, organism-based; parameters: dose 1 mg/kg, route intravenous
Numbered stars: 1 amine (or outer) side, 2 acyl side, 3 side chain; on linkers, the order of the positions; unused ones are H or OH. Bridge positions count the residues as written; N and C are the ends. Square brackets hold non-standard residues; d marks the D form. Peptide text beside a SMILES is read from it. N(2-Aminoethyl)Gly = O=C(CN(CCN[*:3])[*:1])[*:2]; Suc = O=C(CCC(=O)[*:2])[*:1]
metricName: Tmax

What Tmax value was documented for this compound, N=C(N)NCCC[C@@H]1NC(=O)[C@@H](Cc2ccccc2)NC(=O)[C@H](Cc2ccccc2)NC(=O)CCC(=O)NCCN(CC(N)=O)C(=O)[C@H](Cc2c[nH]c3ccccc23)NC1=O (F[dF]RW[N(2-Aminoethyl)Gly]-NH2; linker N-5 via Suc) ?
5 min
